# Tested on: Klebsiella pneumoniae
# Type: cell-based
Numbered stars: 1 amine (or outer) side, 2 acyl side, 3 side chain; on linkers, the order of the positions; unused ones are H or OH. Bridge positions count the residues as written; N and C are the ends. Square brackets hold non-standard residues; d marks the D form. Peptide text beside a SMILES is read from it. * marks the point of attachment. ξ: configuration not given here. X11 = O=C([C@@H](Cc1ccc(-c2ccncc2)cc1)N[*:1])[*:2]; X5 = CCCCCCCCc1ccc(C[C@@H](N[*:1])C(=O)[*:2])cc1; dPhe(4-Br) = N[C@H](Cc1ccc(Br)cc1)C(=O)O; Octanoyl(6-Me) = CCC(C)CCCCC(=O)*; Thr(3ξ) = CC(O)[C@H](N)C(=O)O; X4 = CC(C)CC1CNCC(C(=O)*)C1; Dab = NCC[C@H](N)C(=O)O; Dap = NC[C@H](N)C(=O)O
So basically: is MIC K. pneumoniae 066 under 8 µg/mL? Then Fulfilled. Not under? Then Not fulfilled.

// below: answered compounds
CCCCCCCCC1CNCC1C(=O)N[C@H](C(=O)N[C@@H](CCN)C(=O)N[C@H]1CCNC(=O)[C@H]([C@@H](C)O)NC(=O)[C@H](CCN)NC(=O)[C@H](CCN)NC(=O)[C@H](CC(C)C)NC(=O)[C@@H](Cc2ccc(-c3ccccc3)cc2)NC(=O)[C@H](CCN)NC1=O)C(C)O (single isomer, unassigned; isomer 2) [Example 8] : Fulfilled
CCCCCCCCc1ccc(C[C@H]2NC(=O)[C@H](CCN)NC(=O)[C@@H](NC(=O)[C@H](CN)NC(=O)[C@@H](NC(=O)C3CNCC(CC(C)C)C3)C(C)O)CCNC(=O)[C@H]([C@@H](C)O)NC(=O)[C@H](CCN)NC(=O)[C@H](CCN)NC(=O)[C@H](CC(C)C)NC2=O)cc1 (some centres unmarked) [Example 23] (X4-[Thr(3ξ)][Dap][Dab][Dab][X5]L[Dab][Dab]T; lactam 3-C) : Fulfilled
CCC(C)CCCCC(=O)N[C@@H](CCN)C(=O)N[C@H](C(=O)N[C@@H](CCN)C(=O)N[C@H]1CCNC(=O)[C@H]([C@@H](C)O)NC(=O)[C@H](CCN)NC(=O)[C@H](CCN)NC(=O)[C@H](CC(C)C)NC(=O)[C@@H](Cc2ccc(Br)cc2)NC(=O)[C@H](CCN)NC1=O)C(C)O (stereo partly drawn) [Example 2, Polymyxin B[D-(4-bromoPhe)]-6]] ({Octanoyl(6-Me)}-[Dab][Thr(3ξ)][Dab][Dab][Dab][dPhe(4-Br)]L[Dab][Dab]T; lactam 4-C) : Fulfilled

# input for lookup
Q) Find out if reported MIC K. pneumoniae 066 for CCC(C)CCCCC(=O)N[C@@H](CCN)C(=O)N[C@H](C(=O)N[C@@H](CCN)C(=O)N[C@H]1CCNC(=O)[C@H]([C@@H](C)O)NC(=O)[C@H](CCN)NC(=O)[C@H](CCN)NC(=O)[C@H](CC(C)C)NC(=O)[C@@H](Cc2ccc(-c3ccncc3)cc2)NC(=O)[C@H](CCN)NC1=O)C(C)O (some centres unmarked) [Example 1] ({Octanoyl(6-Me)}-[Dab][Thr(3ξ)][Dab][Dab][Dab][X11]L[Dab][Dab]T; lactam 4-C) is less than 8 µg/mL
A) Not fulfilled

Reference source for all entries: patent US12146004B2
